Tested on: S. mansoni newly transformed schistosomula (NTS), Liberian strain
Assay: NTS (Liberian strain) in vitro viability assay
Assay type: cell-based, Schistosoma mansoni
Details: Schistosoma mansoni, 72 h, Liberian strain
pIC50: −log10 of the molar value.
Could you please report measured pIC50 for the items listed next?

- CHEM_SMILES: "Cn1c(=O)nc2oc3ccc4ccccc4c3cc-2c1=O"
  SUBJECT_OF_TEST: "S. mansoni newly transformed schistosomula (NTS), Liberian strain"
  MEASURED_ATTRIBUTE: "pIC50"
  MEASURED_RESULT: 5.82

Below are 3 compounds. Give each one its pIC50.
1. CCn1c(=O)nc2oc3ccc4ccccc4c3cc-2c1=O
2. O=c1nc2oc3ccc4ccccc4c3cc-2c(=O)n1C1CCCCC1
3. O=c1nc2oc3ccc4ccccc4c3cc-2c(=O)[nH]1

[5.99, "~6.70", "~6.70"]

Below are 3 compounds. Give each one its pIC50.
1. C=CCn1c(=O)nc2oc3ccc4ccccc4c3cc-2c1=O
2. O=c1nc2oc3ccc4ccccc4c3cc-2c(=O)n1Cc1ccccc1
3. CCCn1c(=O)nc2oc3ccc4ccccc4c3cc-2c1=O

["~7.00", "~7.00", "~7.00"]

====

Assay: in vitro
Conditions: human
MEASURED_ATTRIBUTE: IC50 at 72 h (nM)
One number for each entry, in nM.

Look up IC50 at 72 h: CC(C)=CCC[C@]1(C)C=Cc2c(O)c3c(c(CC=C(C)C)c2O1)O[C@]12C(=C[C@@H]4C[C@H]1C(C)(C)O[C@@]2(C/C=C(/C)C(=O)O)C4=O)C3=O [GA, gambogic acid] 340

====

Could you please report measured % egg laying for the items listed next?
Test system: S. mansoni (Puerto Rican) worm pairs
Assay: Egg laying by adult worm pairs (Puerto Rican strain)
Assay type: cell-based, Schistosoma mansoni
Conditions: 10 μM, 72 h; % of DMSO control; SD in brackets

// known answers, use as guide
- CHEM_SMILES: "O=c1nc2oc3ccc4ccccc4c3cc-2c(=O)n1Cc1ccccc1"
  % egg laying: "67 (28) %"
- CHEM_SMILES: "CCCn1c(=O)nc2oc3ccc4ccccc4c3cc-2c1=O"
  % egg laying: "75 (7) %"
- CHEM_SMILES: "O=c1nc2oc3ccc4ccccc4c3cc-2c(=O)n1C1CCCCC1"
  % egg laying: "44 (10) %"
- CHEM_SMILES: "C=CCn1c(=O)nc2oc3ccc4ccccc4c3cc-2c1=O"
  % egg laying: "79 (19) %"

Next compound, please.
Look up % egg laying: O=c1nc2oc3ccc4ccccc4c3cc-2c(=O)[nH]1 122 (14) %

====

System: S. mansoni (Puerto Rican) worm pairs
Test: Worm pairing of adult worm pairs (Puerto Rican strain)
Type: cell-based, Schistosoma mansoni
Settings: 10 μM, 48 h; % of DMSO control; SD in brackets
Could you please report measured % worm pairing for the items listed next?

// known answers, use as guide
- COMPOUND: "C=CCn1c(=O)nc2oc3ccc4ccccc4c3cc-2c1=O [Compound 4]"
  MEASURED_RESULT: "90 (14) %"
- COMPOUND: "O=c1nc2oc3ccc4ccccc4c3cc-2c(=O)n1C1CCCCC1 [Compound 7]"
  MEASURED_RESULT: "100 (0) %"
- COMPOUND: "CCCn1c(=O)nc2oc3ccc4ccccc4c3cc-2c1=O [Compound 5]"
  MEASURED_RESULT: "100 (14) %"
- COMPOUND: "O=c1nc2oc3ccc4ccccc4c3cc-2c(=O)[nH]1 [Compound 1]"
  MEASURED_RESULT: "100 (0) %"

Next compound, please.
Hello, I am looking for reported % worm pairing with S. mansoni (Puerto Rican) worm pairs for O=c1nc2oc3ccc4ccccc4c3cc-2c(=O)n1Cc1ccccc1 [Compound 9] . Could you help? 93 (11) %

====

Could you please report measured IC50 at 72 h for the items listed next?
Assay: MTT viability assay on BJ fibroblasts
Conditions: human
Numbers only, in µM.

- CHEM_SMILES: "O=c1nc2oc3ccc4ccccc4c3cc-2c(=O)n1Cc1ccccc1"
  UNIT_OF_MEASUREMENT: "µM"
  MEASURED_RESULT: 50.6

Look up IC50 at 72 h: O=c1nc2oc3ccc4ccccc4c3cc-2c(=O)n1C1CCCCC1 60

====

Test system: S. mansoni (Puerto Rican) worm pairs
Test: Egg laying by adult worm pairs (Puerto Rican strain)
Type: cell-based, Schistosoma mansoni
Conditions: 20 μM, 24 h; % of DMSO control; SD in brackets
Could you please report measured % egg laying for the items listed next?

- CHEM_SMILES: "O=c1nc2oc3ccc4ccccc4c3cc-2c(=O)[nH]1"
  MEASURED_RESULT: "56 (22) %"
- CHEM_SMILES: "CCCn1c(=O)nc2oc3ccc4ccccc4c3cc-2c1=O"
  MEASURED_RESULT: "12 (16) %"

Below are 3 molecules. Give each one its % egg laying.
1. O=c1nc2oc3ccc4ccccc4c3cc-2c(=O)n1C1CCCCC1
2. C=CCn1c(=O)nc2oc3ccc4ccccc4c3cc-2c1=O
3. O=c1nc2oc3ccc4ccccc4c3cc-2c(=O)n1Cc1ccccc1

1. 14 (12) %
2. 11 (6) %
3. 11 (7) %

====

Test system: S. mansoni (Puerto Rican) worm pairs
Assay: Egg laying by adult worm pairs (Puerto Rican strain)
Type: cell-based, Schistosoma mansoni
Details: 10 μM, 48 h; % of DMSO control; SD in brackets
Could you please report measured % egg laying for the items listed next?

// known answers, use as guide
- COMPOUND: "CCCn1c(=O)nc2oc3ccc4ccccc4c3cc-2c1=O [Compound 5]"
  MEASURED_RESULT: "73 (33) %"
- COMPOUND: "O=c1nc2oc3ccc4ccccc4c3cc-2c(=O)n1C1CCCCC1 [Compound 7]"
  MEASURED_RESULT: "46 (6) %"
- COMPOUND: "O=c1nc2oc3ccc4ccccc4c3cc-2c(=O)n1Cc1ccccc1 [Compound 9]"
  MEASURED_RESULT: "71 (36) %"
- COMPOUND: "C=CCn1c(=O)nc2oc3ccc4ccccc4c3cc-2c1=O [Compound 4]"
  MEASURED_RESULT: "82 (12) %"

Look up % egg laying: O=c1nc2oc3ccc4ccccc4c3cc-2c(=O)[nH]1 [Compound 1] 97 (14) %

====

Could you please report measured pIC50 for the items listed next?
Test system: S. mansoni newly transformed schistosomula (NTS), Liberian strain
Assay: NTS (Liberian strain) in vitro viability assay
Type: cell-based, Schistosoma mansoni
Details: 72 h, Liberian strain
Answers are plain numbers, as −log10 of the molar value.

// known answers, use as guide
- COMPOUND: "C=CCn1c(=O)nc2oc3ccc4ccccc4c3cc-2c1=O [Compound 4]"
  pIC50: 6.92
- COMPOUND: "O=c1nc2oc3ccc4ccccc4c3cc-2c(=O)n1Cc1ccccc1 [Compound 9]"
  pIC50: 6.96
- COMPOUND: "CCCn1c(=O)nc2oc3ccc4ccccc4c3cc-2c1=O [Compound 5]"
  pIC50: 6.92
- COMPOUND: "O=c1nc2oc3ccc4ccccc4c3cc-2c(=O)[nH]1 [Compound 1]"
  pIC50: 6.60

Next compound, please.
Look up pIC50: O=c1nc2oc3ccc4ccccc4c3cc-2c(=O)n1C1CCCCC1 [Compound 7] 6.68

====

Test system: S. mansoni newly transformed schistosomula (NTS), Liberian strain
Assay: NTS (Liberian strain) in vitro viability assay
Assay type: cell-based, Schistosoma mansoni
Conditions: 0.1 μM, SD in brackets
Could you please report measured percentage of reduction of NTS viability, 72 h for the items listed next?

// known answers, use as guide
- CHEM_SMILES: "CCCn1c(=O)nc2oc3ccc4ccccc4c3cc-2c1=O"
  MEASURED_RESULT: "24 (0) %"
- CHEM_SMILES: "C=CCn1c(=O)nc2oc3ccc4ccccc4c3cc-2c1=O"
  MEASURED_RESULT: "20 (0) %"
- CHEM_SMILES: "O=c1nc2oc3ccc4ccccc4c3cc-2c(=O)n1C1CCCCC1"
  MEASURED_RESULT: "43.8 (2.1) %"

Below are 3 molecules. Give each one its percentage of reduction of NTS viability, 72 h.
1. O=c1nc2oc3ccc4ccccc4c3cc-2c(=O)[nH]1
2. O=c1nc2oc3ccc4ccccc4c3cc-2c(=O)n1Cc1ccccc1
3. Cn1c(=O)nc2oc3ccc4ccccc4c3cc-2c1=O

["16.7 (0) %", "36 (2) %", "20.8 (0) %"]

====

Measured IC50 on SmSirt2 (Schistosoma mansoni, UniProt T1VXA1) follows.
Sequence (T1VXA1 entry or part of it): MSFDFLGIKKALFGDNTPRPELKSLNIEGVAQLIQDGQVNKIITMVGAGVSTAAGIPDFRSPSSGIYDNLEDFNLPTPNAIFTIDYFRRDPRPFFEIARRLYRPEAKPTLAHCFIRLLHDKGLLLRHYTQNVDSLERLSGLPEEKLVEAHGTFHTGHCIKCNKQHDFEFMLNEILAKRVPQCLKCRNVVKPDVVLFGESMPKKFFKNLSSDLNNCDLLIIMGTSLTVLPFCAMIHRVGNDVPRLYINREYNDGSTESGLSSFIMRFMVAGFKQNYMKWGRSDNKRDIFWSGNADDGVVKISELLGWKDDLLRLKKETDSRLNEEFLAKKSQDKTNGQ
Answers are plain numbers, in µM.

// known answers, use as guide
- MOLECULE: "CCCCn1c(=O)nc2oc3ccc4ccccc4c3cc-2c1=O [Compound 6]"
  UNIT_OF_MEASUREMENT: "µM"
  IC50: 7.8
- MOLECULE: "Cn1c(=O)nc2oc3ccc4ccccc4c3cc-2c1=O [Compound 2]"
  UNIT_OF_MEASUREMENT: "µM"
  IC50: 2.3
- MOLECULE: "O=c1nc2oc3ccc4ccccc4c3cc-2c(=O)[nH]1 [Compound 1]"
  UNIT_OF_MEASUREMENT: "µM"
  IC50: 3.8
- MOLECULE: "O=c1nc2oc3ccc4ccccc4c3cc-2c(=O)n1Cc1ccccc1 [Compound 9]"
  UNIT_OF_MEASUREMENT: "µM"
  IC50: 7.3
- MOLECULE: "CCCn1c(=O)nc2oc3ccc4ccccc4c3cc-2c1=O [Compound 5]"
  UNIT_OF_MEASUREMENT: "µM"
  IC50: 8

Next molecule, please.
Look up IC50: CCn1c(=O)nc2oc3ccc4ccccc4c3cc-2c1=O [Compound 3] 12.6
